System: SW480
run description: Cancer cell growth inhibition (CellTiter-Glo), SW480
Type: cell-based, Human
measurement parameters: Homo sapiens; Colorectal Cancer, SW480, 72 h treatment
Procedure: Cell culture-based assays were used to evaluate the ability of compounds of the invention to inhibit cancer cell growth. Cells were obtained from the American Type Culture Collection (ATCC). Cells were cultured at 37° C. with 5% CO2 in the appropriate growth medium (see table below), and harvested respectively during the logarithmic growth period and counted with hemocytometer. The cell viability was examined by trypan blue exclusion. […]
measurement type: IC50 (µM)

O=C(CCCCCNC(=O)c1[nH]c(-c2ccc(O)cc2)cc1-c1ccccc1)NO | 2.12

A: O=C(CCCCCNC(=O)c1[nH]c(-c2ccc(O)cc2)cc1-c1ccoc1)NO
B: O=C(CCCCCNC(=O)c1[nH]c(-c2ccccc2)cc1-c1ccc(O)cc1)NO
C: O=C(CCCCCNC(=O)c1[nH]c(-c2ccc(O)cc2)cc1-c1ccsc1)NO
Exam item: With regard to IC50, arrange the entries in ascending order, please. Please list each label once, in the requested order.
Marked response: A, C, B
